Just for reference, patent US20050282743A1 is where these values come from.

# tested system: T1, GST-Shank 1 PDZ domain 1 (Homo sapiens (Human)), Q9UPX8
# T1 chain: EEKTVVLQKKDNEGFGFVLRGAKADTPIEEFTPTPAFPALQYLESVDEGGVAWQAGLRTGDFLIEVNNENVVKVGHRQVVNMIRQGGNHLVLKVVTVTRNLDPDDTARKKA
# test description: G assay titration, PDZ 5 ug/ml
measured parameter: pKd
In simple prose, pKd is minus the logarithm base ten of a concentration in moles per litre.

[in] Which measured pKd value corresponds to DSDPENEPFDEDQHTQITKV (modifications not checked) [PTEN] ?
[out] 5.82

Others:
[in] What value of pKd has been reported for the following binder? TFAAGFNSTGLPHSTTRV (modifications not checked) [Neuroligin]
[out] 6.52
